# key: entry, value: IC50
Target: T1, αvβ3 integrin on cells (U87MG glioblastoma cells; K562-αvβ3 cells) (UniProt P06756 31-1048; P05106 27-788)
T1 construct: whole, on cells; also called cell surface αvβ3 integrin
T1 sequence (P06756 31-1048, chain 1 of 2): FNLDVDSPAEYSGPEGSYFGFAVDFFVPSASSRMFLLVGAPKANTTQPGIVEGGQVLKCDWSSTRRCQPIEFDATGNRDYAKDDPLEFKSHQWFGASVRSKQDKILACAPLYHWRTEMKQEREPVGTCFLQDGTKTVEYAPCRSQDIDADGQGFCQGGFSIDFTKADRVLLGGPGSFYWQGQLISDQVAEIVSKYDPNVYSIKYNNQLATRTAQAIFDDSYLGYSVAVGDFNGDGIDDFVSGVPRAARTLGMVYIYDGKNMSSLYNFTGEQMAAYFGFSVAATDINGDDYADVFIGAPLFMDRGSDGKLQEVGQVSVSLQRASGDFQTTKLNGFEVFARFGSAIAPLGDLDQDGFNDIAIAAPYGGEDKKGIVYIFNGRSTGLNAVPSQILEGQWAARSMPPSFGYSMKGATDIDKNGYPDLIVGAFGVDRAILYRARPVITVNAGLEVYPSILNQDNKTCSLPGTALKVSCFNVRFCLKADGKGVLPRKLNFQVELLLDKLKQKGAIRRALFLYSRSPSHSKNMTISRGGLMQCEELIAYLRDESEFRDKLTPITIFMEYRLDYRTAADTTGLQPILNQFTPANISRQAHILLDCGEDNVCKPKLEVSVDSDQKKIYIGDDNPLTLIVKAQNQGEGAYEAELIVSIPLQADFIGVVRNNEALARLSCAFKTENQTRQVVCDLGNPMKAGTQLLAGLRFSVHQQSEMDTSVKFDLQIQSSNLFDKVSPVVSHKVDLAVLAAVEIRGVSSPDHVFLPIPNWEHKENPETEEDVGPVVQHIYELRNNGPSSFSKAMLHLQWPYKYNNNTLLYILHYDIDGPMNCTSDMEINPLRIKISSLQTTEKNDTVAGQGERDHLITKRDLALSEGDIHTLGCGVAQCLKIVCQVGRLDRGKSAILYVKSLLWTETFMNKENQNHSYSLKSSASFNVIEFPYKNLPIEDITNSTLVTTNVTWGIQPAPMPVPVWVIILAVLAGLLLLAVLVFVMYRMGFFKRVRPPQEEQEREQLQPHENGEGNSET
T1 sequence (P05106 27-788, chain 2 of 2): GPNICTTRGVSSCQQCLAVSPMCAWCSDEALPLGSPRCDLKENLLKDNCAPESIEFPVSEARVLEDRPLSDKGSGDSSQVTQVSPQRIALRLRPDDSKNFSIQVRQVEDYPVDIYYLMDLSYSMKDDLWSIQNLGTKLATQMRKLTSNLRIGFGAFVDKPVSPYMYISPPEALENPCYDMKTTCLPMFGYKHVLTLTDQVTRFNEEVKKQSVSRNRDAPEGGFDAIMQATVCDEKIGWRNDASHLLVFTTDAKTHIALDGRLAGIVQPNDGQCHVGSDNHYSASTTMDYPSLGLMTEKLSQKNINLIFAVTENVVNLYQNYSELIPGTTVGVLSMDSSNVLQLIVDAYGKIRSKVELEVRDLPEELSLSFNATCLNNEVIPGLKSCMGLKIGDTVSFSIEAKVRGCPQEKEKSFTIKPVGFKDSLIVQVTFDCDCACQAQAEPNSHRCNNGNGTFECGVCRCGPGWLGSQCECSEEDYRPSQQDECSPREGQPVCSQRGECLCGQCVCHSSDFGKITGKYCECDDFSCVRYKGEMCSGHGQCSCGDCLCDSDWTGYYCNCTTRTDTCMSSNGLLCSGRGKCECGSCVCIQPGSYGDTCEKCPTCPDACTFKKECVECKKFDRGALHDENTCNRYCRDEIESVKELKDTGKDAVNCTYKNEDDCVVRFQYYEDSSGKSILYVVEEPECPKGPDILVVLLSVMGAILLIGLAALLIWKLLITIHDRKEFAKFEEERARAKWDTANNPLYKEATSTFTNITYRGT
Test: approximate value quoted with the imaging results; U87MG competition assay presumed
No end group written: not given here. *: point of attachment. DOTA = O=C(O)CN1CCN(CC(=O)O)CCN(CC(=O)*)CCN(CC(=O)O)CC1
Measured Attribute: IC50

• {DOTA}-GCPRPRGDNPPLTCSQDSDCLAGCVCGPNGFCG (cysteine pairing not given here) [DOTA-conjugated knottin peptide 2.5F] = ~20 nM
• {DOTA}-GCVTGRGDSPASSCSQDSDCLAGCVCGPNGFCG (cysteine pairing not given here) [DOTA-conjugated FN-RGD2] = ~400 nM
• {DOTA}-GCPQGRGDWAPTSCSQDSDCRAGCVCGPNGFCG (cysteine pairing not given here, also called Cu-DOTA-knottin 2.5D) [DOTA-conjugated knottin peptide 2.5D] = ~20 nM
